Biological target: sheep Cyclooxygenase-1 (Cox1), PTGS1 (gene 443551) (UniProt P05979)
Sequence (P05979 whole entry, looked up): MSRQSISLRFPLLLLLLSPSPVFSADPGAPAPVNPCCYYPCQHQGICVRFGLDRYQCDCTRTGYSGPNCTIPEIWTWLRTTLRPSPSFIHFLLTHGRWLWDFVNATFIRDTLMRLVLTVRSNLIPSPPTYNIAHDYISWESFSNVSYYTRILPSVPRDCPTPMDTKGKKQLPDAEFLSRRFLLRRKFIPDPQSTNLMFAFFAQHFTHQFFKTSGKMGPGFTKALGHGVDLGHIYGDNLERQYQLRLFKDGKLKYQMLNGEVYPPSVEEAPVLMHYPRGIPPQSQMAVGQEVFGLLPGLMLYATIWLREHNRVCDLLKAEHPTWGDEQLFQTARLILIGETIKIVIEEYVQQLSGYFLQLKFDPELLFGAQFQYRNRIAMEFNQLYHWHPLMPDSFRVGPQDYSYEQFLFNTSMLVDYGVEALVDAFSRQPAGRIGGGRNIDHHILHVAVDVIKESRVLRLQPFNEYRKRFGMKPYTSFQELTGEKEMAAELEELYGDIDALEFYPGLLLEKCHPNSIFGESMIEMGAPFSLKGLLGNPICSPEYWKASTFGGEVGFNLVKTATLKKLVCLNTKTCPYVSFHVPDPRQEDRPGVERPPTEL
Test: NVS_ENZ_oCOX1: NovaScreen (NVS) Enzymatic Assay for sheep Cyclooxygenase-1 (Cox1) (AID 2283239);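 also: actives reduce cyclooxygenase activity so potencies are for inhibitors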
Inconclusive results are not listed. Activity calls are given as the source filed them. The calls were made as follows: active = hit-call score of the fitted dose curve at least 0.9, where 1 is the maximum; inconclusive = response in the unintended direction; inactive = score below 0.9.
Possible outcomes: active, inactive

>  <input_smiles>
CS(=O)(=O)OCCCCOS(C)(=O)=O

>  <test_target>
sheep Cyclooxygenase-1 (Cox1), PTGS1 (gene 443551) (UniProt P05979)

>  <label_class>
inactive

$$$$
>  <input_smiles>
COc1cc(Cl)c(OC)cc1N

>  <test_target>
sheep Cyclooxygenase-1 (Cox1), PTGS1 (gene 443551) (UniProt P05979)

>  <label_class>
active

$$$$
>  <input_smiles>
CC1(C)C2=CCCC(C)(C)[C@]23CC[C@H]1C3

>  <test_target>
sheep Cyclooxygenase-1 (Cox1), PTGS1 (gene 443551) (UniProt P05979)

>  <label_class>
active

$$$$
>  <input_smiles>
O=[N+]([O-])c1ccc(O)cc1C(F)(F)F

>  <test_target>
sheep Cyclooxygenase-1 (Cox1), PTGS1 (gene 443551) (UniProt P05979)

>  <label_class>
inactive

$$$$
>  <input_smiles>
CCCCCCCCCCCCCCCC(=O)OC/C=C(C)/C=C/C=C(C)/C=C/C1=C(C)CCCC1(C)C

>  <test_target>
sheep Cyclooxygenase-1 (Cox1), PTGS1 (gene 443551) (UniProt P05979)

>  <label_class>
active

$$$$
>  <input_smiles>
CC(=O)Nc1ccc(C(=O)CCl)cc1

>  <test_target>
sheep Cyclooxygenase-1 (Cox1), PTGS1 (gene 443551) (UniProt P05979)

>  <label_class>
inactive

$$$$
>  <input_smiles>
Oc1c(Cl)cc(Cl)c(Cl)c1Cc1c(O)c(Cl)cc(Cl)c1Cl

>  <test_target>
sheep Cyclooxygenase-1 (Cox1), PTGS1 (gene 443551) (UniProt P05979)

>  <label_class>
active

$$$$
>  <input_smiles>
CN(C)C(=O)Nc1ccc(Oc2ccc(Cl)cc2)cc1

>  <test_target>
sheep Cyclooxygenase-1 (Cox1), PTGS1 (gene 443551) (UniProt P05979)

>  <label_class>
active

$$$$

----------
Target: human RAR-related Orphan Receptor gamma (RORg), RORC (gene 6097)
Test: ATG_RORg_TRANS: Attagene TRANS-FACTORIAL HepG2 Assay for human RAR-related Orphan Receptor gamma (RORg) (AID 2283011)
Inconclusive results are not listed. Activity calls are given as the source filed them. How the source made its calls: active means hit-call score of the fitted dose curve at least 0.9, where 1 is the maximum; inconclusive means response in the unintended direction; inactive means score below 0.9.
Possible outcomes: active, inactive

>  <compound>
CN(C)C(=S)SC(=S)N(C)C

>  <label_class>
inactive

$$$$
>  <compound>
C/C=C(\C)C(=O)OCCc1ccccc1

>  <label_class>
inactive

$$$$
>  <compound>
CC(C)(C)C1=CC(=O)C(C(C)(C)C)=CC1=O

>  <label_class>
active

$$$$
>  <compound>
CCN(CCN)c1cccc(C)c1

>  <label_class>
inactive

$$$$
>  <compound>
C=C(C#N)C(=O)OCC

>  <label_class>
inactive

$$$$
>  <compound>
CCOC(=O)CCc1ccccc1

>  <label_class>
inactive

$$$$
>  <compound>
CCCCCC(C)=O

>  <label_class>
inactive

$$$$
>  <compound>
CCCCCCC(CO)CCCC (centres undefined)

>  <label_class>
inactive

$$$$
>  <compound>
C=CC(=C)CCCC(C)(C)OC(C)=O

>  <label_class>
inactive

$$$$
>  <compound>
CN1C(=O)c2ccccc2C1=O

>  <label_class>
inactive

$$$$
>  <compound>
O=CCc1ccccc1

>  <label_class>
inactive

$$$$
>  <compound>
COC(=O)c1cccnc1

>  <label_class>
inactive

$$$$
>  <compound>
CCOC(=O)C1OC1c1ccccc1 (centres undefined)

>  <label_class>
inactive

$$$$
>  <compound>
Brc1ccc(Br)c(Br)c1

>  <label_class>
inactive

$$$$
>  <compound>
Cc1ccc(OC(=O)c2ccccc2O)cc1

>  <label_class>
inactive

$$$$
>  <compound>
O=C(O)c1ccc(O)cc1

>  <label_class>
inactive

$$$$
>  <compound>
CCO/C=C1\N=C(c2ccccc2)OC1=O

>  <label_class>
inactive

$$$$
>  <compound>
[O-]n1ccccc1=S.[O-]n1ccccc1=S.[Zn+2]

>  <label_class>
inactive

$$$$
>  <compound>
Cc1ccc(N)c(S(=O)(=O)O)c1

>  <label_class>
inactive

$$$$
>  <compound>
COC(C)(C)CCO

>  <label_class>
inactive

$$$$
>  <compound>
COc1cc(C(C)C)ccc1C

>  <label_class>
inactive

$$$$
>  <compound>
CCCCC(CC)COC(C)=O (centres undefined)

>  <label_class>
inactive

$$$$
>  <compound>
O=C(CC(=O)c1ccccc1)c1ccccc1

>  <label_class>
inactive

$$$$
>  <compound>
CCCCC(CC)COC(=O)c1ccc(O)cc1 (centres undefined)

>  <label_class>
inactive

$$$$
>  <compound>
CCCCCCC(O)CCCCCCCCCCC(=O)O (centres undefined)

>  <label_class>
inactive

$$$$
>  <compound>
CCOc1ccc(NC(=O)CC(C)O)cc1 (centres undefined)

>  <label_class>
inactive

$$$$
>  <compound>
CC(C)OCCO

>  <label_class>
inactive

$$$$
>  <compound>
CCCC(=O)c1ccccc1

>  <label_class>
inactive

$$$$
>  <compound>
OCCCCC(O)CO (centres undefined)

>  <label_class>
inactive

$$$$
>  <compound>
C=CCOC(=O)CCCCCC

>  <label_class>
inactive

$$$$
>  <compound>
CCOC(=O)c1ccc(N)cc1

>  <label_class>
inactive

$$$$
>  <compound>
CCCC(=O)OCCc1ccccc1

>  <label_class>
inactive

$$$$
>  <compound>
C=Cc1ccc(C)cc1

>  <label_class>
inactive

$$$$
>  <compound>
O=P(O)(O)O

>  <label_class>
inactive

$$$$

----------
Molecular target: Retinoic acid receptor RXR-alpha (Homo sapiens)
Test: OT_NURR1_NURR1RXRa_0480: Odyssey Thera (OT) 8-hour HEK293T Protein Complementation Assay for Nurr1/retinoid X receptor (RXR) (AID 2283385)
Records with an inconclusive call do not appear. Calls of active or inactive are those of the source. The calls were made as follows: active = hit-call score of the fitted dose curve at least 0.9, where 1 is the maximum; inconclusive = response in the unintended direction; inactive = score below 0.9.
Possible outcomes: active, inactive

>  <compound>
CCCCCC(=O)CC

>  <label_class>
inactive

$$$$
>  <compound>
CCOC(=O)c1ccc(N)cc1

>  <label_class>
inactive

$$$$
>  <compound>
CC(C)c1ccccc1O

>  <label_class>
inactive

$$$$
>  <compound>
OCC(O)c1ccccc1 (stereo unspecified)

>  <label_class>
inactive

$$$$
>  <compound>
CCCCCC(C=O)=Cc1ccccc1

>  <label_class>
inactive

$$$$
>  <compound>
O=c1c(O)c(-c2ccc(O)cc2)oc2cc(O)cc(O)c12

>  <label_class>
inactive

$$$$
>  <compound>
Cc1ccc(S(=O)(=O)Oc2ccc(N=Nc3ccc(-c4ccc(N=Nc5c(O)ccc6cc(S(=O)(=O)O)cc(S(=O)(=O)O)c56)c(C)c4)cc3C)cc2)cc1

>  <label_class>
active

$$$$
>  <compound>
CCCCCCCCSCCO

>  <label_class>
inactive

$$$$
>  <compound>
CN1C(=O)c2ccccc2C1=O

>  <label_class>
inactive

$$$$
>  <compound>
CCCCCCCCCCCCN1CCCCCC1=O

>  <label_class>
active

$$$$
>  <compound>
C=C1CC[C@H](O)C/C1=C/C=C1\CCC[C@]2(C)[C@@H]([C@H](C)/C=C/[C@H](C)C(C)C)CC[C@@H]12

>  <label_class>
inactive

$$$$
>  <compound>
O=CCc1ccccc1

>  <label_class>
active

$$$$
>  <compound>
C=CC(C)(O)CCC=C(C)C (stereo unspecified)

>  <label_class>
inactive

$$$$
>  <compound>
O=C1OC[C@H](Cc2cccc(O)c2)[C@H]1Cc1cccc(O)c1

>  <label_class>
inactive

$$$$
>  <compound>
COCCOCCOCCO

>  <label_class>
inactive

$$$$
>  <compound>
O=C1OC(=O)c2c(Cl)c(Cl)c(Cl)c(Cl)c21

>  <label_class>
inactive

$$$$
>  <compound>
CCCCCCCC/C=C\CCCCCCCC(=O)OCC

>  <label_class>
inactive

$$$$
>  <compound>
C1=CC2C3C=CC(C3)C2C1 (stereo unspecified)

>  <label_class>
inactive

$$$$
>  <compound>
ON=C1CCCCC1

>  <label_class>
inactive

$$$$
>  <compound>
CCCCOC(=O)CCCCCCCC(=O)OCCCC

>  <label_class>
inactive

$$$$
>  <compound>
COc1ccccc1N=Nc1c(S(=O)(=O)O)cc2cc(S(=O)(=O)O)cc(NC(C)=O)c2c1O

>  <label_class>
inactive

$$$$
>  <compound>
OCc1cccc(Oc2ccccc2)c1

>  <label_class>
inactive

$$$$
>  <compound>
CC(C=O)Cc1ccc(C(C)(C)C)cc1 (stereo unspecified)

>  <label_class>
inactive

$$$$
>  <compound>
CCCCCC(C)=O

>  <label_class>
inactive

$$$$
>  <compound>
Cc1cc(=O)oc2cc(N(C)C)ccc12

>  <label_class>
inactive

$$$$
>  <compound>
CCCC(C)=O

>  <label_class>
inactive

$$$$
